All figures here come from the supplement of paper PMC10567573.

B1: C9orf25 (parent)
chain: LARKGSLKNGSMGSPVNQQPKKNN

variants of: B1; test: protein stability index of a GFP-peptide fusion (GPS, HEK-293T) (PSI 1-6); higher = more stable; conditions: c terminus: a fixed tail appended;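 further: lentivirally expressed fusions sorted by FACS into six bins by GFP to DsRed ratio, PSI derived from sequencing read proportions per bin multiplied by bin number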
What protein stability index was measured for each of the following?
Write no unit; give the number alone.

# lookup: protein stability index of N24P
4.48

Given the variant R3G , what is its reported protein stability index?
5.02

Consider the variant K8V and give its measured protein stability index.
4.43

Which protein stability index value belongs to K21E ?
4.87

// query protein stability index value for entry A2G
4.76

Please look up its protein stability index: N9G
4.74

Form field: reported protein stability index of P20K
4.36

Give the measured protein stability index of S11V .
4.71

Which protein stability index reading was recorded for the variant Q19V ?
4.86

Name the reported protein stability index value associated with the variant Q18P
4.55

Please give the measured protein stability index for this variant: Q19F
4.5

Quick check: protein stability index of L1P ?
4.76

Give the measured protein stability index of N23T .
4.89

// returns reported protein stability index for input G10A
4.83

What does the record list as protein stability index for N23Q ?
4.64

protein stability index lookup needed for S6L , thanks.
4.12

Need protein stability index of N17W , thanks.
3.62

Could you share which protein stability index value was measured for L7H ?
4.76

protein stability index lookup needed for S11F , thanks.
4.15

What value of protein stability index has been recorded for this entry: N23D
5.02

Param item = V16F ; retrieve measured protein stability index.
3.91

Could you share which protein stability index value was measured for Q18I ?
4.52

Which protein stability index is reported for this variant? L7K
5.32

Given the entry L1G , report its measured protein stability index.
5.15

Could you share which protein stability index value was measured for S6Q ?
4.76

Given the entry R3C , report its measured protein stability index.
4.85

Consider the variant shown here: K21Y What is its recorded protein stability index?
4

So what's the measured protein stability index for this one? N24E
4.14

# input variant: N9E ; wanted: its protein stability index
5.29

protein stability index lookup needed for Q19H , thanks.
4.69

// returns reported protein stability index for input N17F
4.31

Query: protein stability index; subject: A2D
4.87

Item under review: N17H . Reported protein stability index?
5.11

Any idea what protein stability index was measured for S6F ?
4.36

Entry under review: G10H . Reported protein stability index?
4.67

Please give the measured protein stability index for this variant: L7F
4.2

Given Q18T , state its recorded protein stability index.
5.01

Which protein stability index reading was recorded for the variant V16Q ?
5

What value of measured protein stability index is listed for Q18F ?
4.4

Requested read-out: protein stability index. Entry: G5K
5.05

Reported protein stability index for L7E : what is it?
3.63

Given the entry K21S , report its measured protein stability index.
4.3

Field request: protein stability index | item: K21P
4.18

Find the recorded protein stability index belonging to K4G and report it.
5.17

I would be grateful if you could share the reported protein stability index for P20D .
5.23

So what does the record say about protein stability index for R3N ?
4.96

I am curious: what protein stability index value has been reported for K8T ?
4.53

Give its protein stability index value. Item: V16D
4.85

Field request: protein stability index | item: G5Q
4.6

Quick one: protein stability index of S11C ?
4.5

// protein stability index lookup, key: P20S
4.34

I am curious: what protein stability index value has been reported for N24A ?
4.52

Endpoint output: protein stability index of Q19P . Value?
4.39

Return reported protein stability index; argument: G10I
4.76
